# IC50 values compiled below
Target: HPK1 protein (Homo sapiens)
Construct: purchased Signal Chem M23-11G-10
Sequence (Q92918 1-346 limits assumed): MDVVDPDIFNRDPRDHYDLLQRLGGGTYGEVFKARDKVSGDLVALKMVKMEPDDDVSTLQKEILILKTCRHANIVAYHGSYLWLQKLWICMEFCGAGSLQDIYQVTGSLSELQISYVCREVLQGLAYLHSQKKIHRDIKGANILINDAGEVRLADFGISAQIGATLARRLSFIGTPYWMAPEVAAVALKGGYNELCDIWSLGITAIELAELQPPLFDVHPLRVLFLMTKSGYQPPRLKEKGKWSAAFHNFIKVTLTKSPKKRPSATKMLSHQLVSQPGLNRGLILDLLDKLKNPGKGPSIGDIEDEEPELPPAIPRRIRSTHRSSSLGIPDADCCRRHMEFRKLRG
Assay: HPK1 enzyme inhibition assay (ADP-Glo)
Format: biochemical
Conditions: MBP substrate, ATP, ADP-Glo readout

Worked cases, answers included:
molecule: O=C1CCC(N2C(=O)c3ccc(N4CCC(COC(=O)N5CCN(c6cccc(-c7cnc8[nH]cc(C9CC9)c8c7Cl)c6)C(=O)C5)CC4)cc3C2=O)C(=O)N1 (centres unmarked)
reportedMetric: IC50
valueMeasured: 10 to 100 nM

molecule: CCc1c[nH]c2ncc(-c3cccc(N4CCN(CCNc5ccc6c(c5)C(=O)N(C5CCC(=O)NC5=O)C6=O)CC4=O)c3)c(Cl)c12 (centres unmarked)
reportedMetric: IC50
valueMeasured: 10 to 100 nM

molecule: CCc1c[nH]c2ncc(-c3cccc(N4CCN(C(=O)CCCCCOc5ccc6c(c5)C(=O)N(C5CCC(=O)NC5=O)C6)CC4=O)c3)c(Cl)c12 (centres unmarked)
reportedMetric: IC50
valueMeasured: 10 to 100 nM

molecule: CC(COC1CCN(c2cc3c(cc2F)C(=O)N(C2CCC(=O)NC2=O)C3=O)CC1)N1CCN(c2cccc(-c3cnc4[nH]cc(C5CC5)c4c3Cl)c2)C(=O)C1 (centres unmarked)
reportedMetric: IC50
valueMeasured: 100 to 1000 nM

molecule: O=C1CCC(N2Cc3cc(C4=CC5CCC(C4)N5CCCN4CCN(c5cccc(-c6cnc7[nH]cc(C8CC8)c7c6Cl)c5)C(=O)C4)ccc3C2=O)C(=O)N1 (centres unmarked)
reportedMetric: IC50
valueMeasured: ≤ 10 nM

Would you kindly share the measured IC50 for CCc1c[nH]c2ncc(-c3cccc(N4CCN(S(=O)(=O)CCN5CCN(c6ccc7c(c6)C(=O)N(C6CCC(=O)NC6=O)C7=O)CC5)CC4=O)c3)c(Cl)c12 (centres unmarked) ?
10 to 100 nM

Would you kindly share the measured IC50 for O=C1CCC(N2Cc3cc(C4CCN(CCCN5CCN(c6cccc(-c7cnc8[nH]cc(C9CC9)c8c7Cl)c6)C(=O)C5)CC4)ccc3C2=O)C(=O)N1 (centres unmarked) ?
≤ 10 nM

Would you kindly share the measured IC50 for O=C1CCC(Nc2ccc(C3CCN(CCCS(=O)(=O)N4CCN(c5cccc(-c6cnc7[nH]cc(C8CC8)c7c6Cl)c5)C(=O)C4)CC3)cc2)C(=O)N1 (centres unmarked) ?
≤ 10 nM

Would you kindly share the measured IC50 for CCc1c[nH]c2ncc(-c3cccc(N4CCN(C(=O)CCCCCCCCCOc5cccc6c5CN(C5CCC(=O)NC5=O)C6=O)CC4=O)c3)c(Cl)c12 (centres unmarked) ?
100 to 1000 nM

Would you kindly share the measured IC50 for O=C1CCC(N2C(=O)c3cc(F)c(N4CCC(CCN5CCN(c6cccc(-c7cnc8[nH]cc(CC(F)F)c8c7Cl)c6)C(=O)C5)CC4)cc3C2=O)C(=O)N1 (centres unmarked) ?
100 to 1000 nM

Would you kindly share the measured IC50 for "CCc1c[nH]c2ncc(-c3cccc(N4CCN(CCCN5CCC(c6ccc7c(N8CCC(=O)NC8=O)cccc7c6)CC5)CC4=O)c3)c(Cl)c12" ?
10 to 100 nM

----------
Biological target: HPK1 protein (Mus musculus)
Construct: the CD3+ T cell population was isolated from spleenocytes of mice; endogenous in cells; host or cells: primary mouse splenic CD3+ (pan) T cells
Sequence (P70218 whole entry): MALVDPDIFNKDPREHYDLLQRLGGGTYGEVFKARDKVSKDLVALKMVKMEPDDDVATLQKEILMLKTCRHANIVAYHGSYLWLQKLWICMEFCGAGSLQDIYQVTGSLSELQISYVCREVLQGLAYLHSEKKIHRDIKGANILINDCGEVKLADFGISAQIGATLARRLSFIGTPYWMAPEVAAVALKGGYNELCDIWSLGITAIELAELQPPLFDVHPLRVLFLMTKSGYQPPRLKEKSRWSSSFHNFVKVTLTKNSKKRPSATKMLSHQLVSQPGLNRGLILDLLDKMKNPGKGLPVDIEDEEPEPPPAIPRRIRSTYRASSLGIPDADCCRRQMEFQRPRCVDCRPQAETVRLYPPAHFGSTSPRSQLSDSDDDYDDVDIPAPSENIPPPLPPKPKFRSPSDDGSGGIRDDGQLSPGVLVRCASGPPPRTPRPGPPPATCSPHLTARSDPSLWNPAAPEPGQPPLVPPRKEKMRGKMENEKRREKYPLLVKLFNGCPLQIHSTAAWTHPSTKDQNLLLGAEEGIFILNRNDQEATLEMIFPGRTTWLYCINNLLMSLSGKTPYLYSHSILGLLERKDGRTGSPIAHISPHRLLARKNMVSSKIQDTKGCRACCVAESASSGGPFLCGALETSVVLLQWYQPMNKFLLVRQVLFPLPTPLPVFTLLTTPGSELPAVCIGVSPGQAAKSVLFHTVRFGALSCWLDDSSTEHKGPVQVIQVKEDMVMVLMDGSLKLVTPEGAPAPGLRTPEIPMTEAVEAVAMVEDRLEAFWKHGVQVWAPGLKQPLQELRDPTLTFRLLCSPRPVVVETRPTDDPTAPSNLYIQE
Assay: HPK1 protein degradation in mouse pan T cell (western blot)
Type: cell-based
Conditions: 18 h incubation
reportedMetric: Dmax (%)

Worked cases, answers included:
molecule: O=C1CCC(N2C(=O)c3cc(F)c(N4CCC(OCCCN5CCN(c6cccc(-c7cnc8[nH]cc(CC(F)F)c8c7Cl)c6)C(=O)C5)CC4)cc3C2=O)C(=O)N1 (stereo not shown) [Example 39]
reportedMetric: Dmax
valueMeasured: 80
--
molecule: O=C1CCC(N2Cc3cc(N4CCC(CCN5CCN(c6cccc(-c7cnc8[nH]cc(C9CC9)c8c7Cl)c6)C(=O)C5)CC4)c(F)cc3C2=O)C(=O)N1 (stereo not shown) [Example 62]
reportedMetric: Dmax
valueMeasured: 95
--
molecule: O=C1CCC(N2C(=O)c3cc(F)c(N4CCC(CCN5CCN(c6cccc(-c7cnc8[nH]cc(C9CC9)c8c7Cl)c6)C(=O)C5)CC4)cc3C2=O)C(=O)N1 (stereo not shown) [Example 45]
reportedMetric: Dmax
valueMeasured: 90
--
molecule: O=C1CCC(N2C(=O)c3cc(F)c(N4CCC(OCCCN5CCN(c6cccc(-c7cnc8[nH]cc(C9CC9)c8c7Cl)c6)C(=O)C5)CC4)cc3C2=O)C(=O)N1 (stereo not shown) [Example 40]
reportedMetric: Dmax
valueMeasured: 95
--
molecule: CCc1c[nH]c2ncc(-c3cccc(N4CCN(C(=O)CCN5CCN(C(=O)c6ccc(C)c(N7CCC(=O)NC7=O)c6)CC5)CC4=O)c3)c(Cl)c12 [Example 50]
reportedMetric: Dmax
valueMeasured: 80
--
molecule: CN(CC(=O)N1CCN(c2cccc(-c3cnc4[nH]cc(C5CC5)c4c3Cl)c2)C(=O)C1)C1CCN(c2cc3c(cc2F)C(=O)N(C2CCC(=O)NC2=O)C3=O)CC1 (stereo not shown) [Example 42]
reportedMetric: Dmax
valueMeasured: 95
--
molecule: O=C1CCC(N2Cc3cc(C4=CCN(CCCN5CCN(c6cccc(-c7cnc8[nH]cc(C9CC9)c8c7Cl)c6)C(=O)C5)CC4)ccc3C2=O)C(=O)N1 (stereo not shown) [Example 56]
reportedMetric: Dmax
valueMeasured: 95
--
molecule: O=C1CCC(Nc2ccc(N3CCN(CCCN4CCN(c5cccc(-c6cnc7[nH]cc(C8CC8)c7c6Cl)c5)C(=O)C4)CC3)c(F)c2)C(=O)N1 (stereo not shown) [Example 79]
reportedMetric: Dmax
valueMeasured: 97

P. CCc1c[nH]c2ncc(-c3cccc(N4CCN(S(=O)(=O)CCN5CCN(c6ccc7c(c6)C(=O)N(C6CCC(=O)NC6=O)C7=O)CC5)CC4=O)c3)c(Cl)c12 (stereo not shown) [Example 100]
Q. CCc1c[nH]c2ncc(-c3cccc(N4CCN(CCCCNc5ccc6c(c5)C(=O)N(C5CCC(=O)NC5=O)C6=O)CC4=O)c3)c(Cl)c12 (stereo not shown) [Example 59]
Field: entry with larger Dmax (options P / Q ). Identify your pick by its label.
P
(P: 90%, Q: 60%)
